procedure-text: PK test in mice
Format: in vivo
experimental-setup: mouse, IV 5 mg/kg, plasma
property-measured: half-life (h)
Please state the figure in h; there is no need to write the unit.

input: half-life lookup needed for `COc1ccc(F)cc1C(=O)NCc1ccc(-c2nn(-c3ccc(N4CCN(CC5CCN(c6ccc(N7CCC(=O)NC7=O)c(C)c6)CC5)CC4)nc3)c3ncnc(N)c23)cc1` , thanks.
output: 5.35

###

Tested on: mino cells
procedure-text: Activity test in Mino cells (CCK8 proliferation inhibition)
Assay type: cell-based
experimental-setup: Homo sapiens, 72 h, 3 days, read-out: Cell inhibition IC50
In this section, each of the compounds is paired with its reported IC50.

Consider the worked cases shown below.
| given-smiles | target-or-system | IC50 |
| --- | --- | --- |
| COc1ccc(F)cc1C(=O)NCc1ccc(-c2nn(-c3ccc(N4CCN(CC5CCN(c6ccc(N7CCC(=O)NC7=O)c(C)c6)CC5)CC4)cc3)c3ccnc(N)c23)cc1 | mino cells | < 100 nM |
| COc1ccc(F)cc1C(=O)NCc1ccc(-c2nn(-c3ccc(N4CCN(CC5CCN(c6ccc(N7CCC(=O)NC7=O)c(C)c6)CC5)CC4)cc3)c(N)c2C(N)=O)cc1 | mino cells | < 25 nM |
| COc1ccc(F)cc1C(=O)NCc1ccc(-c2nn(-c3ccc(N4CCN(CC5CCN(c6ccc(N7CCC(=O)NC7=O)c(C)c6)CC5)CC4)cc3)c3ncnc(N)c23)cc1 | mino cells | < 25 nM |

// switching to the query compound
input: IC50 lookup needed for `COc1ccc(F)cc1C(=O)NCc1ccc(-c2nn(-c3ccc(C4CCN(CC5CCN(c6ccc(N7CCC(=O)NC7=O)c(C)c6)CC5)CC4)cc3)c3ncnc(N)c23)cc1F` , thanks.
output: < 25 nM

###

Tested on: mino cells
procedure-text: Activity test in Mino cells (CCK8 proliferation inhibition)
Type: cell-based
experimental-setup: 3 days, read-out: Cell inhibition IC50
property-measured: pIC50
A value of pIC50 is the negative decimal logarithm of a concentration given in moles per litre.

input: Lookup: pIC50 / mino cells / `COc1ccc(F)cc1C(=O)NCc1ccc(-c2nn(-c3ccc(N4CCN(CC5CCN(c6ccc(N7CCC(=O)NC7=O)c(C)c6)CC5)CC4)nc3)c3ncnc(N)c23)cc1C`
output: 7.21

###

procedure-text: PK test in mice
Format: in vivo
experimental-setup: mouse, PO 20 mg/kg, plasma
property-measured: AUC(0-t)
Put down the number, then write its unit next to it.

input: AUC(0-t) lookup needed for `COc1ccc(F)cc1C(=O)NCc1ccc(-c2nn(-c3ccc(N4CCN(CC5CCN(c6ccc(N7CCC(=O)NC7=O)c(C)c6)CC5)CC4)nc3)c3ncnc(N)c23)cc1` , thanks.
output: 83500 ng·h/mL

###

Test system: mino cells
procedure-text: Activity test in Mino cells (CCK8 proliferation inhibition)
Type: cell-based
experimental-setup: Homo sapiens, 72 h, 3 days, read-out: Cell inhibition IC50
property-measured: IC50

Consider the worked cases shown below.
| molecule | assay-value |
| --- | --- |
| COc1ccc(F)cc1C(=O)NCc1ccc(-c2nc(-c3ccc(N4CC5CC(C4)N5CC4CCN(c5ccc(N6CCC(=O)NC6=O)c(C)c5)CC4)cc3)n3ccnc(N)c23)cc1 | < 0.05 µM |
| COc1ccc(F)cc1C(=O)NCc1ccc(-c2nn(-c3ccc(C4CCN(CC5CCN(c6ccc(N7CCC(=O)NC7=O)c(C)c6)CC5)CC4)nc3)c3ncnc(N)c23)cc1 | < 0.05 µM |
| Cc1cc(N2CCC(CN3CCN(c4ccc(-n5nc(-c6ccc(Oc7ccccc7)cc6)c6c(N)ncnc65)cc4)CC3)CC2)ccc1N1CCC(=O)NC1=O | < 0.1 µM |
| COc1ccc(F)cc1C(=O)NCc1ccc(-c2nn(-c3ccc(N4CCN(CC5CCN(c6ccc(N7CCC(=O)NC7=O)c(C)c6)CC5)C[C@H]4C)nc3)c3ncnc(N)c23)cc1 | < 0.025 µM |

// switching to the query molecule
input: Lookup: IC50 / mino cells / COc1ccc(F)cc1C(=O)NCc1ccc(-c2nn(-c3ccc(C4CCN(CC5CCN(c6ccc7c(c6)C(=O)N(C6CCC(=O)NC6=O)C7)CC5)CC4)cc3)c(N)c2C(N)=O)cc1 (centres unmarked)
output: < 0.025 µM

###

procedure-text: PK test in mice
Format: in vivo
experimental-setup: mouse, IV 5 mg/kg, plasma
property-measured: MRT (h)
Please state the figure in h; there is no need to write the unit.

input: MRT lookup needed for `COc1ccc(F)cc1C(=O)NCc1ccc(-c2nn(-c3ccc(N4CCN(CC5CCN(c6ccc(N7CCC(=O)NC7=O)c(C)c6)CC5)CC4)nc3)c3ncnc(N)c23)cc1` , thanks.
output: 5.25

###

procedure-text: Brain tissue distribution test in mice
Assay type: in vivo
experimental-setup: mouse, IV 10 mg/kg, brain
property-measured: MRT (h)
Please state the figure in h; there is no need to write the unit.

input: MRT lookup needed for COc1ccc(F)cc1C(=O)NCc1ccc(-c2nc(-c3ccc(N4CCN(CC5CCN(c6ccc(C7CCC(=O)NC7=O)cc6)CC5)CC4)cc3)n3ccnc(N)c23)cc1 (stereo not shown) , thanks.
output: 7.17

###

Tested on: mino cells
procedure-text: Activity test in Mino cells (CCK8 proliferation inhibition)
Type: cell-based
experimental-setup: Homo sapiens, 72 h, 3 days, read-out: Cell inhibition IC50
pIC50: −log10 of the molar value.
property-measured: pIC50

| compound | pIC50 |
| --- | --- |
| COc1ccc(F)cc1C(=O)NCc1ccc(-c2nc(-c3ccc(N4CCN(CC5CCN(c6ccc(C7CCC(=O)NC7=O)cc6)CC5)CC4)cc3)n3ccnc(N)c23)cc1 (centres unmarked) | > 7.60 |
| COc1ccc(F)cc1C(=O)NCc1ccc(-c2nc(-c3ccc(N4CCN(CC5CCN(c6ccc(N7CCC(=O)NC7=O)c(C)c6)CC5)CC4)nc3)n3ccnc(N)c23)cc1 | > 7.30 |
| COc1ccc(F)cc1C(=O)NCc1ccc(-c2nc(-c3ccc(N4CCN(CC5CCN(c6ccc(N7CCC(=O)NC7=O)c(C)c6)CC5)CC4)cc3)n3ccnc(N)c23)cc1 | > 7.60 |
| COc1ccc(F)cc1C(=O)NCc1ccc(-c2nn(-c3ccc(N4CCC(CN5CCN(c6ccc(N7CCC(=O)NC7=O)c(C)c6)CC5)CC4)cc3)c3ncnc(N)c23)cc1 | > 7.60 |

input: pIC50 lookup needed for COc1ccc(F)cc1C(=O)NCc1ccc(-c2nn(-c3ccc(N4CCN(CC5CCN(c6ccc7c(c6)CN(C6CCC(=O)NC6=O)C7=O)CC5)CC4)nc3)c3ccnc(N)c23)cc1 (centres unmarked) , thanks.
output: > 6.30

input: Could you do the same for `COc1ccc(F)cc1C(=O)NCc1ccc(-c2nn(-c3ccc(C4CCN(CC5CCN(c6ccc(N7CCC(=O)NC7=O)c(C)c6)CC5)CC4)nc3)c(N)c2C(N)=O)cc1` , please?
output: > 7.60

input: Could you do the same for Nc1ncnc2c1c(-c1ccc(Oc3ccccc3)cc1)nn2-c1ccc(N2CCN(C[C@@H]3CCCC[C@H]3CN3CCN(c4ccc5c(c4)CN(C4CCC(=O)NC4=O)C5=O)CC3)CC2)nc1 (some centres unmarked) , please?
output: > 7.00

input: Could you do the same for COc1ccc(F)cc1C(=O)NCc1ccc(-c2nn(-c3ccc(N4CCN(CC5CCN(c6ccc7c(c6)C(=O)N(C6CCC(=O)NC6=O)C7)CC5)CC4)nc3)c(N)c2C(N)=O)cc1 (centres unmarked) , please?
output: > 7.60

input: Could you do the same for COc1ccc(F)cc1C(=O)NCc1ccc(-n2c(=O)n(-c3ccc(N4CCN(CC5CCN(c6ccc7c(c6)CN(C6CCC(=O)NC6=O)C7=O)CC5)CC4)cc3)c3ccnc(N)c32)cc1 (centres unmarked) , please?
output: > 7.30

input: Could you do the same for `CCc1cc(-c2nc(-c3ccc(CNC(=O)c4cc(F)ccc4OC)cc3)c3c(N)nccn23)ccc1N1CCN(CC2CCN(c3ccc(N4CCC(=O)NC4=O)c(C)c3)CC2)CC1` , please?
output: > 7.00

input: Could you do the same for COc1ccc(F)cc1C(=O)NCc1ccc(-c2nn(-c3ccc(C4CCN(CC5CCN(c6ccc(C7CCC(=O)NC7=O)cc6)CC5)CC4)nc3)c3ncnc(N)c23)cc1 (centres unmarked) , please?
output: > 7.00

###

procedure-text: Brain tissue distribution test in mice
Assay type: in vivo
experimental-setup: mouse, IV 10 mg/kg, brain
property-measured: AUC(0-t) (ng·h/mL)
Please state the figure in ng·h/mL; there is no need to write the unit.

input: AUC(0-t) lookup needed for COc1ccc(F)cc1C(=O)NCc1ccc(-c2nc(-c3ccc(N4CCN(CC5CCN(c6ccc(C7CCC(=O)NC7=O)cc6)CC5)CC4)cc3)n3ccnc(N)c23)cc1 (stereo not shown) , thanks.
output: 2270

These entries and their values trace back to patent US20260248784A1.
